- test target: human PAR-2 (hPAR-2) receptor (Homo sapiens, UniProt P55085)
- Construct: endogenous in cells
- Sequence (P55085 26-397): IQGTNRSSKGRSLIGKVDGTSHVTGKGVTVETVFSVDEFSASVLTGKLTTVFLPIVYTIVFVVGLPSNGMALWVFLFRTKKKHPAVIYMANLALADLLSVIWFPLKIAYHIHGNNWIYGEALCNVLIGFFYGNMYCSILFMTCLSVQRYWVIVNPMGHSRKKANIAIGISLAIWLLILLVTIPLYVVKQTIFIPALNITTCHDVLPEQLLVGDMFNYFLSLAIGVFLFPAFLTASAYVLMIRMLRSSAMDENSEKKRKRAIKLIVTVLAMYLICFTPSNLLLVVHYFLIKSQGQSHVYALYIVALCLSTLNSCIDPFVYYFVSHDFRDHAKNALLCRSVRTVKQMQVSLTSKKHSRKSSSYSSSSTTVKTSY
- assay details: In vitro human PAR-2 functional antagonist activity using calcium assays
- test context: hPAR-2 endogenously expressed in HEK-293 cells; stimulated by 2-Furoyl-LIGRLO-NH2 peptide; Fluo4AM intracellular calcium, FLIPR Tetra
pIC50: −log10 of the molar value.
# key: entry, value: pIC50

molecule | pIC50
CC(=O)N1CCN(C(=O)c2ccc3c(n2)C(C)(C)CN3c2ccc(Cl)c(F)c2)C(C)(C)C1 [Example 24] | 5.00 to 6.30
Cc1cc(N2CCN(C(=O)c3ccc4c(n3)C(C)(C)CN4c3cccc(F)c3)C(C)(C)C2)nc(C)c1C(=O)O [Example 17] | > 6.30
CO[C@@H]1CCC2(C1)CN(c1ccc(Cl)c(F)c1)c1ccc(C(=O)N3CCN(c4cc(C)c(C(=O)O)c(C)n4)CC3(C)C)nc12 (stereo partly shown) [Example 144] | > 6.30
CC(C)(O)CNC(=O)c1ccc2c(n1)C(C)(C)CN2c1ccc(Cl)c(F)c1 [Example 52] | < 5.00
CC1(C)CN(c2ccc(F)cc2)c2ccc(C(=O)N3CCNC(=O)C3(C)C)nc21 [Example 15] | > 6.30

Task: // lookup pIC50 | system=human PAR-2 (hPAR-2) receptor (Homo sapiens, UniProt P55085) | key= CCOC(=O)CCCC(=O)N1CCN(C(=O)c2ccc3c(n2)C(C)(C)CN3c2ccc(Cl)c(F)c2)C(C)(C)C1 [Example 27]
Output: > 6.30

Task: // lookup pIC50 | system=human PAR-2 (hPAR-2) receptor (Homo sapiens, UniProt P55085) | key= CC1(C)CN(c2ccc(Cl)c(F)c2)c2ccc(C(=O)N3CCN(C(=O)CCCC(=O)O)CC3(C)C)nc21 [Example 28]
Output: 5.00 to 6.30

====

# key: entry, value: pIC50
- test target: human PAR-2 (hPAR-2) receptor (Homo sapiens, UniProt P55085)
- Construct: endogenous in cells
- assay details: In vitro human PAR-2 functional antagonist activity using calcium assays
- test context: hPAR-2 endogenously expressed in HEK-293 cells; stimulated by 2-Furoyl-LIGRLO-NH2 peptide; Fluo4AM intracellular calcium, FLIPR Tetra
pIC50: −log10 of the molar value. Counter-ions that a name gives are not always drawn.

Some compounds with known pIC50 results, for comparison:
compound | pIC50
Cc1cc(N2CCN(C(=O)c3cnc4c(n3)C(C)(C)CN4C3CCCC3)C(C)(C)C2)nc(C)c1C(=O)O | < 5.00
CC1(C)CN(c2cc(F)c(F)c(F)c2)c2ncc(C(=O)N3CCN(c4ccc(CC(=O)O)cn4)CC3(C)C)nc21 | > 6.30
CC1(C)CC2(CN(c3ccc(F)c(F)c3)c3ncc(C(=O)N4CCNC(=O)C4(C)C)nc32)C1 | > 6.30

Task: GET /values?readout=pIC50&item= CC1(C)C(=O)NCCN1C(=O)c1ccc2c(n1)C1(CCCC1)CN2c1ccc(Cl)c(F)c1
Output: > 6.30

Task: GET /values?readout=pIC50&item= CC1(C)CN(c2ccc(CC(=O)O)cn2)CCN1C(=O)c1cc2n(n1)C(C)(C)CN(c1ccc(Cl)c(F)c1)C2
Output: 5.00 to 6.30

Task: GET /values?readout=pIC50&item= CC1(C)CN(c2ccc(Cl)c(F)c2)Cc2cn(C(=O)N3CCN(c4ccc(CC(=O)O)cn4)CC3(C)C)nc21
Output: 5.00 to 6.30

Task: GET /values?readout=pIC50&item= CC1(C)C(=O)NCCN1C(=O)c1ccc2c(n1)C1(CCOCC1)C(=O)N2c1ccc(Cl)c(F)c1
Output: 5.00 to 6.30

Task: GET /values?readout=pIC50&item= CC1(C)C(=O)NCCN1C(=O)c1ccc2c(n1)C1(CCCC1)CN2c1cccc(Cl)c1
Output: > 6.30

Task: GET /values?readout=pIC50&item= CN(c1ccc(C(=O)O)cn1)C1CCCN(C(=O)c2ccc3c(n2)C(C)(C)CN3c2ccc(Cl)c(F)c2)C1 (stereo not shown) [Example 111, hydrochloride]
Output: 5.00 to 6.30

Task: GET /values?readout=pIC50&item= CC(C)CN1CC(C)(Cc2ccc(Cl)c(F)c2)c2ccc(C(=O)N3CCN(c4ccc(CC(=O)O)cn4)CC3(C)C)nc21 (stereo not shown)
Output: < 5.00

Task: GET /values?readout=pIC50&item= CC1(C)CCN(c2ccc(Cl)c(F)c2)c2ccc(C(=O)N3CCN(c4ccc(CC(=O)O)cn4)CC3(C)C)nc21
Output: > 6.30

Task: GET /values?readout=pIC50&item= CC1(C)CN(C2CCCC2)c2ccc(C(=O)N3CCN(c4ccc(CC(=O)O)cn4)CC3(C)C)nc21
Output: 5.00 to 6.30

Task: GET /values?readout=pIC50&item= CC1(C)CN(c2ccc(Cl)c(F)c2)c2ncc(C(=O)N3CCN(c4ccc(CC(=O)O)cn4)CC3(C)C)nc21
Output: > 6.30

Task: GET /values?readout=pIC50&item= CC1CC2(C1)CN(c1ccc(Cl)c(F)c1)c1ccc(C(=O)N3CCN(c4ccc(CC(=O)O)cn4)CC3(C)C)nc12 (stereo not shown)
Output: > 6.30

Task: GET /values?readout=pIC50&item= COC1c2nc(C(=O)N3CCN(c4ccc(CC(=O)O)cn4)CC3(C)C)ccc2N(c2ccc(Cl)c(F)c2)CC1(C)C (stereo not shown)
Output: 5.00 to 6.30

Task: GET /values?readout=pIC50&item= COc1ncc(N2CCN(C(=O)c3ccc4c(n3)C(C)(C)CN4c3ccc(Cl)c(F)c3)C(C)(C)C2)cc1C(=O)O
Output: > 6.30

Task: GET /values?readout=pIC50&item= CC1(C)CN(c2ccc(Cl)c(F)c2)c2ccc(C(=O)N3CCN(c4cc(C(=O)O)ccn4)CC3(C)C)nc21
Output: > 6.30

Task: GET /values?readout=pIC50&item= CC1(C)CN(c2ccc(Cl)c(F)c2)c2ccc(C(=O)N3CCN(c4ccc(CC(=O)O)cn4)CC3(C)C)nc21
Output: > 6.30

Task: GET /values?readout=pIC50&item= CN1CNC(=O)C12CCN(C(=O)c1ccc3c(n1)C(C)(C)CN3c1ccc(Cl)c(F)c1)CC2
Output: 5.00 to 6.30

Task: GET /values?readout=pIC50&item= CCN1CCN(C(=O)c2ccc3c(n2)C(C)(C)CN3c2ccc(Cl)c(F)c2)C(C)(C)C1=O
Output: > 6.30

Task: GET /values?readout=pIC50&item= CC1(C)CN(c2ccc(Cl)c(F)c2)c2ccc(C(=O)N3CCC4(CC3)CNC(=O)O4)nc21
Output: 5.00 to 6.30

Task: GET /values?readout=pIC50&item= Cc1cc(N2CCN(C(=O)c3ccc4c(n3)C(C)(C)CN4c3ccc(Cl)cn3)C(C)(C)C2)nc(C)c1C(=O)O
Output: > 6.30

Task: GET /values?readout=pIC50&item= Cc1cc(N2CCN(C(=O)c3ccc4c(n3)C3(CCOCC3)CN4c3ccc(Cl)c(F)c3)C(C)(C)C2)nc(C)c1C(=O)O
Output: > 6.30

Task: GET /values?readout=pIC50&item= Cc1cc(N2CCN(C(=O)c3cnc4c(n3)C3(CCCC3)CN4c3ccc(Cl)c(F)c3)C(C)(C)C2)nc(C)c1C(=O)O
Output: > 6.30

Task: GET /values?readout=pIC50&item= CC1(C)CN(c2ccc(Cl)c(F)c2)c2ccc(C(=O)N3CCCC(Nc4ccc(C(=O)O)cn4)C3)nc21 (stereo not shown)
Output: < 5.00

Task: GET /values?readout=pIC50&item= Cc1cc(N2CCN(C(=O)c3cnc4c(n3)C(C)(C)CN4c3ccc(Cl)c(F)c3)C(C)(C)C2)c(C(=O)O)c(C)n1
Output: < 5.00

Task: GET /values?readout=pIC50&item= CC1(C)CN(c2ccc(CC(=O)O)cn2)CCN1C(=O)c1cnc2c(n1)C1(CCC1)CN2c1ccc(Cl)c(F)c1
Output: > 6.30

Task: GET /values?readout=pIC50&item= Cc1cc(N2CCN(C(=O)c3ccc4c(n3)C3(CN4c4ccc(Cl)c(F)c4)CC(F)(F)C3)C(C)(C)C2)nc(C)c1C(=O)O
Output: > 6.30
